QUANTITY MEASURED: melting point (°C)
Enter your answer as a number in °C; do not include the unit.

Give its melting point value. Item: COc1ccc(-n2c(SCC(=O)Oc3ccc4c(C)cc(=O)oc4c3)nnc2-c2cc3cc(Cl)ccc3o2)cc1 [Compound 17g]
200

Could you do the same for COc1cccc2cc(-c3nnc(SCC(=O)Oc4ccc5c(C)cc(=O)oc5c4)n3-c3ccccc3)oc12 [Compound 17b] , please?
140

Could you do the same for Cc1cc(=O)oc2cc(OC(=O)CSc3nnc(-c4cc5cc(Cl)ccc5o4)n3-c3ccccc3)ccc12 [Compound 17f] , please?
226

Could you do the same for Cc1cc(=O)oc2cc(OC(=O)CSc3nnc(-c4cc5cc(Br)ccc5o4)n3-c3ccccc3)ccc12 [Compound 17d] , please?
232

Could you do the same for Cc1cc(=O)oc2cc(OC(=O)CSc3nnc(-c4cc5ccccc5o4)n3-c3ccccc3)ccc12 [Compound 17a] , please?
152

Could you do the same for COc1ccc(-n2c(SCC(=O)Oc3ccc4c(C)cc(=O)oc4c3)nnc2-c2cc3cccc(OC)c3o2)cc1 [Compound 17c] , please?
137

Could you do the same for COc1ccc(-n2c(SCC(=O)Oc3ccc4c(C)cc(=O)oc4c3)nnc2-c2cc3cc(Br)ccc3o2)cc1 [Compound 17e] , please?
220

The measurements presented in this section are drawn from paper PMC11054269.
